Structures can show the parent of a compound that is named as a salt.
QUANTITY_NAME: melting point

Q: For the compound CC(C)c1ccc(Nc2nc3ccccc3[nH]2)cc1 , what melting point is on record?
A: 179 to 180 °C

Q: And for Cc1cc(Nc2nc3ccccc3[nH]2)ccc1F (as salt: hydrochloride) ?
A: 246 to 248 °C

Q: Query c1ccc(-c2ccccc2Nc2nc3ccccc3[nH]2)cc1 next
A: 152 to 154 °C

Q: Follow-up item: Fc1ccc(Nc2nc3ccccc3[nH]2)cc1Cl (as salt: hydrochloride)
A: 306 to 307 °C

Q: Note, next up: Clc1ccc(Nc2nc3ccccc3[nH]2)cc1Cl (as salt: hydrochloride)
A: > 270 °C

Q: Moving on to the next compound: Fc1ccc(Nc2nc3ccccc3[nH]2)c(F)c1F
A: 182 to 183 °C

Q: Also check Cc1c(Nc2nc3ccccc3[nH]2)cccc1C(F)(F)F
A: 204 to 206 °C

Q: Moving on to the next compound: Fc1cc(Nc2nc3ccccc3[nH]2)cc(C(F)(F)F)c1 (as salt: hydrochloride)
A: 263 to 265 °C

Q: And Fc1ccc(Nc2nc3ccccc3[nH]2)cc1C(F)(F)F (as salt: hydrochloride) ?
A: 255 to 257 °C

Q: Now consider Clc1ccc(Nc2nc3ccccc3[nH]2)cc1 (as salt: hydrochloride) .
A: 238 to 240 °C

Q: Ok, now FC(F)(F)c1ccc(Nc2nc3ccccc3[nH]2)cc1
A: 199 to 200 °C

Q: // same read-out, input: COc1cc(Nc2nc3ccccc3[nH]2)cc(C(F)(F)F)c1 (as salt: hydrochloride)
A: 212 to 213 °C

Q: Also, Fc1ccc(Nc2nc3ccccc3[nH]2)cc1F (as salt: hydrochloride) please.
A: 283 to 284 °C

Q: Continue with N#Cc1cccc(Nc2nc3ccccc3[nH]2)c1
A: 272 to 274 °C

Q: Try Fc1c(Nc2nc3ccccc3[nH]2)cccc1C(F)(F)F next.
A: 91 to 92 °C

Q: What about Fc1cc(F)cc(Nc2nc3ccccc3[nH]2)c1 (as salt: hydrochloride) ?
A: 292 to 293 °C

Q: Another: FC(F)(F)c1cccc(Nc2nc3ccccc3[nH]2)c1
A: 160 to 162 °C
